Test Details: chemical genetic growth profiling, strain panel (AID 1159580);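 note: tested at 20 µM; growth read once vehicle control cultures reached saturation at 30 °C; 1 = growth at the plate median or of vehicle wells; lower values mean less growth of the strain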
Settings: S. cerevisiae deletion strains, growth OD, locus YLR258W, strain gsy2, stronger effect = lower value
Hit rate of the full screen: of about 5,500 compounds, about 2,000 (36%) were called active. Not shown: some 18% with an inconclusive outcome. The list shows a part of the results.
Below is a list of entries, each paired with its recorded normalized growth value.

Molecule: COc1ccc(-c2coc3cc(O)ccc3c2=O)cc1
normalized growth: 0.99
//
Molecule: C[C@H]1COc2c(N3CCN(C)CC3)c(F)cc3c(=O)c(C(=O)O)cn1c23
normalized growth: 1.02
//
Molecule: COc1c(N2CCNC(C)C2)c(F)cc2c(=O)c(C(=O)O)cn(C3CC3)c12 (stereo unspecified)
normalized growth: 0.987
//
Molecule: COc1ccc(-c2coc3cc(O)ccc3c2=O)c(OC)c1
normalized growth: 1.01
//
Molecule: CCn1cc(C(=O)O)c(=O)c2cc(F)c(N3CCNC(C)C3)c(F)c21 (stereo unspecified)
normalized growth: 0.98
//
Molecule: CO/N=C1/CN(c2nc3c(cc2F)c(=O)c(C(=O)O)cn3C2CC2)CC1CN (stereo unspecified)
normalized growth: 1.02
//
Molecule: O=c1c(-c2ccc(O)cc2)coc2cc(O)ccc12
normalized growth: 0.978
//
Molecule: CC1CCc2cc(F)cc3c(=O)c(C(=O)O)cn1c23 (stereo unspecified)
normalized growth: 0.982
//
Molecule: NCCCS(=O)(=O)O
normalized growth: 1.01
//
Molecule: CC1COc2c(N3CCN(C)CC3)c(F)cc3c(=O)c(C(=O)O)cn1c23 (stereo unspecified)
normalized growth: 0.994
//
Molecule: COc1ccc(C(=O)CC(=O)O)c2c1C=CC(C)(C)O2
normalized growth: 1

FYI, the data here is from PubChem BioAssay AID1159580.
